- ASSAYED_TARGET: Photoreceptor-specific nuclear receptor (Homo sapiens)
- MEASUREMENT_PROTOCOL: NCOR release from NR2E3 in cells – cell-based, luminescence, CHO-S, Gal4-NCOR/VP16-NR2E3, primary screen (AID 602229);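 also: higher means lower luciferase signal from less NR2E3 corepressor binding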
- COND: CHO-S Gal4-NCOR/VP16-NR2E3 two-hybrid, luciferase; at 3.98 µM
The campaign covered roughly 360,000 compounds. About 1,300 (0.36%) were called active.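 The calls were made as follows: active = inhibition above the mean of all tested compounds plus 3 SD (cut at about 70% in these data); inactive = the rest.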 The entries come from a sample that favours actives as a whole.
Hi there, use one of these labels in your reply, thanks! active, inactive

Previously resolved entries follow.
# COMPOUND, ASSAYED_TARGET, CAT
measured = [
    ("CCCCN1C(=O)CC(N2CCOCC2)C1=O (configuration not stated)", "Photoreceptor-specific nuclear receptor (Homo sapiens)", "inactive"),
    ("NC(=O)C1CCN(CC(O)CSc2ccc(F)cc2)CC1 (configuration not stated)", "Photoreceptor-specific nuclear receptor (Homo sapiens)", "inactive"),
    ("Cc1ccc(NS(=O)(=O)c2ccc3c(c2)n(C)c(=O)c(=O)n3C)c(C)c1", "Photoreceptor-specific nuclear receptor (Homo sapiens)", "inactive"),
]

Now, please, on to the next compound.
Called result for `Cc1ccnc(NC(=O)Cn2ccc([N+](=O)[O-])n2)c1`
inactive

---

- ASSAYED_TARGET: Photoreceptor-specific nuclear receptor (Homo sapiens) (UniProt Q9Y5X4)
- Sequence (Q9Y5X4 whole entry, looked up, the tested form may be a part): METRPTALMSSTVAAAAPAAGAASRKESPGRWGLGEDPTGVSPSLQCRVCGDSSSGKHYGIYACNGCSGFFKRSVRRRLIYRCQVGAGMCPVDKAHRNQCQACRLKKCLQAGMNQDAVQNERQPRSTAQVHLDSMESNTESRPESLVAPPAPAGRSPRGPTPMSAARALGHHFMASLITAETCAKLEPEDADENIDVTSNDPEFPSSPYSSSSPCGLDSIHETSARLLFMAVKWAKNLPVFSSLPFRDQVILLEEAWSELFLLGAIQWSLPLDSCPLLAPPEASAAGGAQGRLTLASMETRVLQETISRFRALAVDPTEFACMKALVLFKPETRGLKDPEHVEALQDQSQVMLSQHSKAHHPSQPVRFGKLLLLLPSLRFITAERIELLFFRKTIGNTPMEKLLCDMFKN
- MEASUREMENT_PROTOCOL: NCOR release from NR2E3 in cells – cell-based, luminescence, CHO-S, Gal4-NCOR/VP16-NR2E3, primary screen (AID 602229);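 also: higher means lower luciferase signal from less NR2E3 corepressor binding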
- COND: CHO-S Gal4-NCOR/VP16-NR2E3 two-hybrid, luciferase; at 3.98 µM
Among all 360,000 compounds or so, about 1,300 (0.36%) were called active.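 Rule for the calls: active = inhibition above the mean of all tested compounds plus 3 SD (cut at about 70% in these data); inactive = the rest.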 This is one part of a sample in which actives are shown more often than they occur.
Permitted responses: active, inactive

# MOLECULE, CAT
records = [
    ("COc1ccc(OC)c(Nc2nc3ccccc3n3cnnc23)c1", "inactive"),
    ("COc1ccccc1-c1nn(Cc2ccccc2)cc1C(=O)N1CCN(c2ncccn2)CC1", "inactive"),
    ("CC(/C=C/c1ccco1)=N/NC(=O)C1COc2ccccc2O1 (configuration not stated)", "inactive"),
]

Shifting focus to the molecule that follows.
I'd appreciate the recorded outcome for `Cc1ccc(C)c(NC(=O)CN(C)C(=O)c2ccc3ncsc3c2)c1` from this test.
inactive

---

- ASSAYED_TARGET: Photoreceptor-specific nuclear receptor (Homo sapiens)
- MEASUREMENT_PROTOCOL: NCOR release from NR2E3 in cells – cell-based, luminescence, CHO-S, Gal4-NCOR/VP16-NR2E3, primary screen (AID 602229);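 also: higher means lower luciferase signal from less NR2E3 corepressor binding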
- COND: CHO-S Gal4-NCOR/VP16-NR2E3 two-hybrid, luciferase; at 3.98 µM
Hit rate of the full screen: of about 360,000 compounds, about 1,300 (0.36%) were called active.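 How the source made its calls: active means inhibition above the mean of all tested compounds plus 3 SD (cut at about 70% in these data); inactive means the rest.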 The list comes from a sample in which actives are over-represented; it also holds close analogues and randomly drawn compounds.
Return exactly one item of active, inactive

# COMPOUND, CAT
measured = [
    ("COc1cccc(N(CC(=O)NC2CCCC2)C(=O)CCCC(=O)Nc2ccccn2)c1", "inactive"),
]

Short answer needed: outcome of this test for `C/C(=N/NC(=S)Nc1ccccc1)c1ccc2c(c1)OCO2` ?
inactive

Ok, now `NC(=O)COC(=O)c1ccc2c(c1)C(=O)N(Cc1ccco1)C2=O`
inactive

FYI, the data here is from PubChem BioAssay AID602229.
